experiment: soluble on expression in E. coli; label from the status in PepcDB or PDB records
ENDPOINT_NAME: soluble on expression in E. coli

HELLSREEVESILSENQLLLQVTPTAPPKTPLSVCFYQVSLEIDRPQSPLVSQSAFEEAATLYNLLPKVDSWICEQLLVDHAQAIHQKGLALAIPLSEAALLKEDFRQSLLTLVQQTLLPPQSLYWMIDESTLLQYPFAIGNFLAKLQQPGCKLIVKEFGHNLNDFELLAEHHIDYLKFNSELIAHIHINQMDEVLISIINGTAQRANIATLAGPVELPPTLSKLIDIGVDLADGTMIGRTEPLSEVLNSSYFAIK soluble
MQDSRPHPHDWNVSTDEAKRIQRRLASEVTERALPDGGETVAGIDVSVRDDTAQAAVSVLRLPELDVVDEATHRCEVPFPYVPGLLSFREMPAVLPALERLHSTPDVFVTDSHGAAHPRRFGLACHLGVLLDAPAIGVAKSILVGAPQGELGPEKGSRVPLVDDGETVGTVLRTRTDVNPVYVSVGHRCTLDGAADLMLDCSPRYKIPEPTRQAHKLSRAEGAAALEHHHHHH soluble

* * *

assay: soluble on expression in E. coli; label from the status in PepcDB or PDB records
ENDPOINT_NAME: soluble on expression in E. coli

MDIPQTKQDLELPKLAGTWHSMAMATNNISLMATLKAPLRVHITSLLPTPEDNLEIVLHRWENNSCVEKKVLGEKTENPKKFKINYTVANEATLLDTDYDNFLFLCLQDTTTPIQSMMCQYLARVLVEDDEIMQGFIRAFRPLPRHLWYLLDLKQMEEPCRF soluble
MKRDGHTHTEFCPHGTHDDVEEMILKAIELDFDEYSIVEHAPLSSEFMKNTAGNQEAVTTASMSMSDLPYYFKKMNQMKKKYASDLLIHIGFEVDYLIGYEDFTRDFLNEYGPQTDDGVLSLHFLEGQGGFRSIDFTAEDYNEGIVQFYGGFEQAQLVYLAGVKQSIEADLGAFKPRRIGHISLCQKFQQFFGADGRDFTAEVIAEFEAILALVKKRGYELDFNTAGLFKPLCKETYPPKEIVTLARALEIPFVYGSDSHGVADIGRGYNTYCQKLEHHHHHH soluble

* * *

test: soluble on expression in E. coli; label from the status in PepcDB or PDB records
ENDPOINT_NAME: soluble on expression in E. coli

Sample records with soluble on expression in E. coli:
MELLLSKVTDAGIDPSSVSGEEAITLWEHIGRHIASTSREKAHCLIISAEYRREIKQLCDSIEELRQALELLSLPEDVEDILSVKASLSERLVEVGDYNSALTEYIASTNIAVEYGFIDEYVLAIIGMGNLCDAYGDHNRALRYYQKIDAIDHAISSRSLRLRYKLYMLACYISLKRVAEASELLGECEELSILVSDKNLAAQTHLYRAKLHRLQEEYSEALLSISSIKYTTGSATTYWLSTMVKIETAYCLNGVGHTSLANLLLESIGKRIKKHSSPILAKRFYNAMSKVSASQGQFQQALSCEKRAFRIESDLIKHIPISELGAAQLRRLSRFELQLKLILSEIENKEL not soluble
MSLAHAQMEMPPRSLGAVIEQAEAQEAPILLEVYAPWCPYCQRMQENVYADAEVRSYLDRRFTYARLNRDTTGGTHRFNGRTLSSKELGMALGARGVPTTVFMKPDGTPIAKQPGYIKRPVFLQMLRYFGSGAYEEQSFEAFRARASEGHHHHHH not soluble
MAVYLDFENHIKEIQNEIELALIRGDEDAKEILEKRLDKEVKSIYSNLTDFQKLQLARHPDRPYAMDYIDLILKDKYEVFGDRHYNDDKAIVCFVGKIDNVPVVVIGEEKGRGTKNKLLRNFGMPNPCGYRKALKMAKFAEKFNLPILMLVDTAGAYPGIGAEERGQSEAIAKNLQEFASLKVPTISVIIGEGGSGGALAIAVADKLAMMEYSIFSVISPEGCAAILWDDPSKTEVAIKAMKITPRDLKEAGLIDDIILEPSKGAHRDKFSAANTIKEYFLDALRTIQQDPHFLDNRYQKLMSLGSFVESMN soluble
TAKQRDDAIENAEAAKVESEQVAKKATEGELHLAEVLEQANLNSIELKSVSQALDEQSSQLDEQVNALNVNSESQASAAEQMSQQVHHMATGIEESSKFVEELREKSEDVHQQAEKSSELLEDSTQAIGQIITSHEEIMKVADLITSVAEANQLAGFKCGNRSGASRRSGQRFCCGCRASTRAICEE not soluble
GNMDSKAVEELSATECHQWYKKFMTECPSGQLTLYEFKQFFGLKNLSPSANKYVEQMFETFDFNKDGYIDFMEYVAALSLVLKGKVDQKLRWYFKLYDVDGNGCIDRGELLNIIKAIRAINRCNEAMTAEEFTNMVFDKIDINGDGELSLEEFMEGVQKDEVLLDILTRSLDLTHIVKLIQNDGKNPHAPEEAEEAAQ soluble

We now examine a further sequence.
I would be grateful if you could share the reported soluble on expression in E. coli for MEENSIKIHKWLYPASWLYGAGVALRNKLFDWGKLQSKSFNVPIICIGNIAVGGTGKTPHTEYLIKLLHDEFQVAVLSRGYKRHTKGFVLSTAESDARSIGDEPYQIQSKFSDIRVAVDEDRCHGIERLLTLKEPPVEVILLDDAFQHRYVKAGLNILLTDYHRLFCDDTLMPAGRLRESAQGKNRAQIVIVTKCPPDIKPIDYNIITKRLNLFPYQQLYFSSFRYGNLRAVFPDCATVQERKLSSLQTEEQILLITGIASPDTIIRELEIHTRNIDLLAFSDHHNFSQRDLAQIKERFGKLRKGQRLIVTTEKDATRLICHQELDEGLKPFIYALPIEVEILQNQQDNFNQHIIGYVRENTRNGSLPERKDAHKSLEHHHHHH .
soluble

Data provenance: the DeepSol protein solubility set
